# measured_on: tissue plasminogen activator (t-PA) (Homo sapiens)
# Construct: purchased American Diagnostics, Greenwich, Conn
# Sequence (P00750 36-562): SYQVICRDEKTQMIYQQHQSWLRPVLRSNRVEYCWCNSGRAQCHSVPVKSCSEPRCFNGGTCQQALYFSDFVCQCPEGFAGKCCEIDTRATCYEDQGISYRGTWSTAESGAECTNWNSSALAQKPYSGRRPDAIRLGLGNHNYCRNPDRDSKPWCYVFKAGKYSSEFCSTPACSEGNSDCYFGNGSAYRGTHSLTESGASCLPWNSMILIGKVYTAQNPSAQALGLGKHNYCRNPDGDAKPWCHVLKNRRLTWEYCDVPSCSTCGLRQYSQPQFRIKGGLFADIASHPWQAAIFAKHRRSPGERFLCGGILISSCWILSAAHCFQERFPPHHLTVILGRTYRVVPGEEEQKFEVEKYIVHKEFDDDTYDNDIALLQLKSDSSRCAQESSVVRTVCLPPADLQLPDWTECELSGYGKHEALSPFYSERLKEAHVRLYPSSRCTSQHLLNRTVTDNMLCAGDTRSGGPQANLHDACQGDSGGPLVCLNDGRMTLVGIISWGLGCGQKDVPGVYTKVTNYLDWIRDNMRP
# test_details: Serine protease inhibition, t-PA (chromogenic substrate), Kass
# Assay type: biochemical
# condition_notes: substrate H-D-Ile-Pro-Arg-p-nitroanilide
Lab note: anything with Enzyme Kass, t-Pa at or over 0.4 L/mol × 10^6 counts as true; the rest go in false.

{"columns": ["compound", "measured_on", "group_label"],
 "data": [
  ["Cl.N=C(N)NCCC[C@@H](C=O)NC(=O)[C@@H]1CCCN1C(=O)[C@@H](Cc1ccccc1)NC(=O)Cc1ccccc1 [Example 26, PhCH2 CO-D-Phe-Pro-Arg-H.HCl]", "tissue plasminogen activator (t-PA) (Homo sapiens)", "false"],
  ["Cl.N=C(N)NCCC[C@@H](C=O)NC(=O)[C@@H]1CCCN1C(=O)[C@@H](Cc1ccccc1)NS(=O)(=O)c1ccc(C(=O)O)cc1 [Example 18, 4-(HO2 C)-C6 H4 SO2 -D-Phe-Pro-Arg-H.HCl]", "tissue plasminogen activator (t-PA) (Homo sapiens)", "true"],
  ["COc1ccc(OC)c(S(=O)(=O)N[C@H](Cc2ccccc2)C(=O)N2CCC[C@H]2C(=O)N[C@H](C=O)CCCNC(=N)N)c1.Cl [Example 15, 2,5-(MeO)2 -PhSO2 -D-Phe-Pro-Arg-H-HCl]", "tissue plasminogen activator (t-PA) (Homo sapiens)", "true"],
  ["Cl.NC(N)=NCCCC(C=O)NC(=O)C1CCCN1C(=O)C(Cc1ccccc1)NC(=O)Cc1cccnc1 (centres unmarked) [Example 4]", "tissue plasminogen activator (t-PA) (Homo sapiens)", "false"],
  ["COCC(=O)N[C@H](Cc1ccccc1)C(=O)N1CCC[C@H]1C(=O)N[C@H](C=O)CCCNC(=N)N.Cl [Example 24, CH3 OCH2 CO-D-Phe-Pro-Arg-H.HCl]", "tissue plasminogen activator (t-PA) (Homo sapiens)", "false"]
]}
